system: Puccinia recondita f. sp. tritici; test: Test H: wheat leaf rust, curative spray on inoculated wheat seedlings, visual disease rating; details: wheat leaf rust, curative; 100 = 100% disease control, 0 = no control relative to controls
Reported Test H rating (% disease control) values for a set of compounds
Measure: Test H rating (% disease control)

Compound	Target or test system	Measure	Reported measurement
COc1ccc(Nc2c(-c3ccc(F)cc3F)c(C)nn2C)c(Cl)c1	Puccinia recondita f. sp. tritici	Test H rating (% disease control)	0%
Cc1ccc(Oc2c(-c3c(F)cc(F)cc3F)c(C)nn2C)cc1C#N	Puccinia recondita f. sp. tritici	Test H rating (% disease control)	0%
Cc1nn(C)c(Oc2cc(C#N)c(C#N)cc2Cl)c1-c1c(F)cc(F)cc1F	Puccinia recondita f. sp. tritici	Test H rating (% disease control)	0%
Cc1nn(C)c(Oc2cccc(C#N)c2)c1-c1c(F)cc(F)cc1F	Puccinia recondita f. sp. tritici	Test H rating (% disease control)	88%
Cc1nn(C)c(Nc2ccc(F)cc2Cl)c1-c1c(F)cccc1C(F)(F)F	Puccinia recondita f. sp. tritici	Test H rating (% disease control)	0%
Cc1nn(C)c(Nc2ccc(F)cc2)c1-c1ccccc1F	Puccinia recondita f. sp. tritici	Test H rating (% disease control)	0%
Cc1nn(C)c(Nc2ncc(F)cc2F)c1-c1c(F)cccc1Cl	Puccinia recondita f. sp. tritici	Test H rating (% disease control)	8%
Cc1nn(C)c(Nc2c(F)cc(F)cc2F)c1-c1c(F)cccc1C(F)(F)F	Puccinia recondita f. sp. tritici	Test H rating (% disease control)	0%
COc1cccc(Nc2c(-c3c(F)cccc3F)c(C)nn2C)c1Cl	Puccinia recondita f. sp. tritici	Test H rating (% disease control)	0%
Cc1nn(C)c(Nc2c(F)cccc2F)c1-c1ccc(F)cc1F	Puccinia recondita f. sp. tritici	Test H rating (% disease control)	0%
Cc1nn(C)c(Oc2c(F)cc(C#N)cc2F)c1-c1cccc(F)c1F	Puccinia recondita f. sp. tritici	Test H rating (% disease control)	8%
Cc1nn(C)c(Nc2ncc(F)cc2F)c1-c1c(F)cccc1C(F)(F)F	Puccinia recondita f. sp. tritici	Test H rating (% disease control)	0%
COc1cc(F)ccc1Nc1c(-c2c(F)cccc2F)c(C)nn1C	Puccinia recondita f. sp. tritici	Test H rating (% disease control)	0%
Cc1nn(C)c(Oc2ccc(C#N)cc2Cl)c1-c1ccc(F)cc1Br	Puccinia recondita f. sp. tritici	Test H rating (% disease control)	9%
Cc1nn(C)c(Nc2c(F)cc(F)cc2F)c1-c1c(F)cccc1Cl	Puccinia recondita f. sp. tritici	Test H rating (% disease control)	0%
COc1cc(F)c(-c2c(C)nn(C)c2C(O)c2ccc(F)cc2F)c(F)c1 (stereo not shown)	Puccinia recondita f. sp. tritici	Test H rating (% disease control)	0%
COc1cc(F)c(-c2c(C)nn(C)c2Oc2ccc(Cl)c(C)c2)c(F)c1	Puccinia recondita f. sp. tritici	Test H rating (% disease control)	0%
Cc1nn(C)c(Nc2ccc(F)cc2)c1-c1cccc(F)c1F	Puccinia recondita f. sp. tritici	Test H rating (% disease control)	0%
Cc1nn(C)c(Nc2c(F)cc(C#N)cc2F)c1-c1ccc(F)cc1F	Puccinia recondita f. sp. tritici	Test H rating (% disease control)	0%

----------
system: Botrytis cinerea; test: Test B: tomato Botrytis, preventive spray on tomato seedlings, visual disease rating; settings: tomato Botrytis; 100 = 100% disease control, 0 = no control relative to controls

Compound smiles	Test B rating (% disease control) / %
COc1cc(Oc2c(-c3c(F)cc(F)cc3F)c(C)nn2C)ccc1Br	0
Cc1nn(C)c(Oc2cc(F)c(C#N)cc2F)c1-c1ccc(F)cc1Br	100
Cc1nn(C)c(Oc2ccc(C#N)cc2Cl)c1-c1ccc(F)cc1Br	98
COc1cc(F)c(-c2c(C)nn(C)c2Oc2cccc(C#N)c2)c(F)c1	96
Cc1nn(C)c(Nc2ccc(C#N)cc2F)c1-c1c(F)cccc1F	99
COc1cc(F)c(-c2c(C)nn(C)c2Oc2ccc(Cl)c(F)c2)c(F)c1	100
Cc1nn(C)c(Oc2ccc(C#N)c(C#N)c2)c1-c1c(F)cc(F)cc1F	24
COc1ccc(F)c(Nc2c(-c3ccc(F)cc3F)c(C)nn2C)c1	82
COc1ccc(-c2c(C)nn(C)c2Nc2cc(F)ccc2F)c(Cl)c1	100
